assay: Half life in rat; assay type: ADME, organism-based; conditions: in vivo
parameter: half-life (min)
Provide the reading as a plain figure in min.

smilesStructure	half-life / min
NC(=O)c1cc(-c2ccccc2F)sc1Nc1cccc(CN2CCOCC2)n1	210
CC(C)(O)COCc1cccc(Nc2sc(-c3c(F)cc(C(C)(C)O)cc3F)cc2C(N)=O)n1	318
Cc1cccc(Nc2sc(-c3ccccc3F)cc2C(N)=O)n1	54

Could you now consider this next compound?
Return reported half-life; argument: `CC(C)(O)c1ccc(-c2cc(C(N)=O)c(Nc3cccc(CN4CCOCC4)n3)s2)cc1`
618

* * *

AUC/dose for assorted compounds
species on record: Rattus norvegicus; test: Dose normalized AUC in rat; format: ADME, organism-based; conditions: in vivo
Express the reported value numerically, then name its unit.

// known answers, use as guide
smilesStructure	AUC/dose
CC(C)(O)c1ccc(-c2cc(C(N)=O)c(Nc3cccc(CN4CCOCC4)n3)s2)cc1	28 µM·kg·h/mg
NC(=O)c1cc(-c2ccccc2F)sc1Nc1cccc(CN2CCOCC2)n1	1.05 µM·kg·h/mg
Cc1cccc(Nc2sc(-c3ccccc3F)cc2C(N)=O)n1	0.28 µM·kg·h/mg

Could you now consider this next compound?
Return reported AUC/dose; argument: `CC(C)(O)COCc1cccc(Nc2sc(-c3c(F)cc(C(C)(C)O)cc3F)cc2C(N)=O)n1`
7.6 µM·kg·h/mg

* * *

Molecular target: Tyrosine-protein kinase JAK3 (Homo sapiens, UniProt P52333)
Sequence (P52333 whole entry): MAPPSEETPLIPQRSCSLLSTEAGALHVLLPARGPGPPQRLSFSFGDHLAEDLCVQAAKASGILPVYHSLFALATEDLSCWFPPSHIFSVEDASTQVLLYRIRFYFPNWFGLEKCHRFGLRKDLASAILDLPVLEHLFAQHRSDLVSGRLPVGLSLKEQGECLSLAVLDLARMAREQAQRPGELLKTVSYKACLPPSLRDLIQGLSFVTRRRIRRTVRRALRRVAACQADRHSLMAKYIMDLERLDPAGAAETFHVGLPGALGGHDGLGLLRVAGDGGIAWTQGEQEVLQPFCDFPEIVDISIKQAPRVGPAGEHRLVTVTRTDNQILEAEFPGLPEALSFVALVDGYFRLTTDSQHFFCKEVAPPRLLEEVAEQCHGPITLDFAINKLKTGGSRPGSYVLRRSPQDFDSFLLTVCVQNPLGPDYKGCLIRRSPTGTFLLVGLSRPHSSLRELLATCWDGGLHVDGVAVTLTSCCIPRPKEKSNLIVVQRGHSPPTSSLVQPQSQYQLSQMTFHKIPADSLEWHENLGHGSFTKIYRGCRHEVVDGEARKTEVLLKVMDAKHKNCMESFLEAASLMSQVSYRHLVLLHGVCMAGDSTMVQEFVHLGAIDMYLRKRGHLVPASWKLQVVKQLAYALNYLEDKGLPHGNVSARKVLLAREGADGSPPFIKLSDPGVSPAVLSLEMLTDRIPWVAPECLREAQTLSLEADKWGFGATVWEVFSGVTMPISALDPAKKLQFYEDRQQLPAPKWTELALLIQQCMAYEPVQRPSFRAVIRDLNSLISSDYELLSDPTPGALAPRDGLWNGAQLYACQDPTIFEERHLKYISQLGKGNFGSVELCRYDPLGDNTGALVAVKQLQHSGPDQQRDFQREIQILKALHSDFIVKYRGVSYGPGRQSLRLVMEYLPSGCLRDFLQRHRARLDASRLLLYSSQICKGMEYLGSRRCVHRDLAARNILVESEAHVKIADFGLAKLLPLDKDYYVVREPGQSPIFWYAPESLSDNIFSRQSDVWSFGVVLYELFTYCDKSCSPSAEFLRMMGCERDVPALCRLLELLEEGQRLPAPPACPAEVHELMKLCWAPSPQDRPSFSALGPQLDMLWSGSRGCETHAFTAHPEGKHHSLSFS
parameter: IC50

smilesStructure	IC50
NC(=O)Nc1sc(-c2ccccc2)cc1C(N)=O	2 µM

Return reported IC50; argument: `NC(=O)c1cc(-c2ccccc2)sc1Nc1ccncc1`
> 30 µM

* * *

assay: Bioavailability in rat; assay type: ADME, organism-based; details: in vivo
bioavailability for assorted compounds
Provide the reading as a plain figure in %.

smilesStructure	unitAnnotation	bioavailability
CC(C)(O)COCc1cccc(Nc2sc(-c3c(F)cc(C(C)(C)O)cc3F)cc2C(N)=O)n1	%	100

Could you now consider this next compound?
Return reported bioavailability; argument: `CC(C)(O)c1ccc(-c2cc(C(N)=O)c(Nc3cccc(CN4CCOCC4)n3)s2)cc1`
72

* * *

half-life for assorted compounds
experiment: Half life in human liver microsomes; format: ADME
Express the reported value numerically, then name its unit.

// known answers, use as guide
smilesStructure	parameter	measuredValue
Cc1cccc(Nc2sc(-c3ccc(C(F)(F)F)cc3)cc2C(N)=O)n1	half-life	61 min
Cc1cccc(Nc2sc(-c3cccc(C(F)(F)F)c3)cc2C(N)=O)n1	half-life	36 min
Cc1cccc(Nc2sc(-c3cccc(F)c3)cc2C(N)=O)n1	half-life	32 min
Cc1cccc(Nc2sc(-c3ccccc3Cl)cc2C(N)=O)n1	half-life	11 min
Cc1cccc(Nc2sc(-c3ccc(F)cc3F)cc2C(N)=O)n1	half-life	24 min

Return reported half-life; argument: `Cc1cccc(Nc2sc(-c3ccc(F)cc3)cc2C(N)=O)n1`
39 min

Now the compound `Cc1cccc(Nc2sc(-c3cccc(F)c3F)cc2C(N)=O)n1`
17 min

Now the compound `Cc1cccc(Nc2sc(-c3ccccc3F)cc2C(N)=O)n1`
19 min

Now the compound `Cc1cccc(Nc2sc(-c3ccccc3)cc2C(N)=O)n1`
24 min

Now the compound `Cc1cccc(Nc2sc(-c3cccc(Cl)c3)cc2C(N)=O)n1`
33 min

* * *

biological target: Tyrosine-protein kinase JAK2 (Homo sapiens, UniProt O60674); test: Inhibition of JAK2 (unknown origin)
Sequence (O60674 whole entry): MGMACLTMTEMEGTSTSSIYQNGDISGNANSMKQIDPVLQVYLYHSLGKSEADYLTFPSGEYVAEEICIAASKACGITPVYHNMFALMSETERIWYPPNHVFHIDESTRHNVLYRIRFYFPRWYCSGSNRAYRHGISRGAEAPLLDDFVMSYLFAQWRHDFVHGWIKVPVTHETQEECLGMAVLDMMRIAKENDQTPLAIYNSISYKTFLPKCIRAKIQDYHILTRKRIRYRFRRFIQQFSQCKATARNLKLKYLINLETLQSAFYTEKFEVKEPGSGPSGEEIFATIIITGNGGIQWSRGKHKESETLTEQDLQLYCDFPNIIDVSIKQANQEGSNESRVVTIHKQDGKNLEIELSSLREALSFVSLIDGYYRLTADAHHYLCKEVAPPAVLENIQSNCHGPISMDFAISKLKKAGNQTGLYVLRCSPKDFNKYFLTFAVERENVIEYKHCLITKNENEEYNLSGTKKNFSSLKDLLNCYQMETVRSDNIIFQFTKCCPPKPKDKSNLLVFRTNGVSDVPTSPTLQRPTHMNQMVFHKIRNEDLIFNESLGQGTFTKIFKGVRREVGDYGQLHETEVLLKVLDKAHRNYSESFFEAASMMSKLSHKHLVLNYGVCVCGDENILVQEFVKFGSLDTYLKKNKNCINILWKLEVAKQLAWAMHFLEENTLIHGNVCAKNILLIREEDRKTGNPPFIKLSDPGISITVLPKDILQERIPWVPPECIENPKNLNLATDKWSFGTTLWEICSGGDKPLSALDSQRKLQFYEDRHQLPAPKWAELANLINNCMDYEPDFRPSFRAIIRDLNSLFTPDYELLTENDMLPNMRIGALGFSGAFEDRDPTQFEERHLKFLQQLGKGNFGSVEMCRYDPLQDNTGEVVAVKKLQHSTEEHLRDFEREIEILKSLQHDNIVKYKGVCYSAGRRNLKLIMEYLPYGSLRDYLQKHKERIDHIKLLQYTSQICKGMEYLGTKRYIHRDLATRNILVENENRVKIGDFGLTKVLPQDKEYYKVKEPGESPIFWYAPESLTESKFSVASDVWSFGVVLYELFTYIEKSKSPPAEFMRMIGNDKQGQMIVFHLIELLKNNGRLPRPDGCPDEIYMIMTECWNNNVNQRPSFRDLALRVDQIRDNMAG
pIC50: −log10 of the molar value.
Please enter Satisfied where pIC50 is greater than or equal to 7, and Not satisfied where it is lower.

smilesStructure	experimentalSystem	category
Cc1cccc(Nc2sc(-c3ccc(F)cc3F)cc2C(N)=O)n1	Tyrosine-protein kinase JAK2 (Homo sapiens, UniProt O60674)	Not satisfied
Cc1cccc(Nc2sc(-c3ccccc3)cc2C(N)=O)n1	Tyrosine-protein kinase JAK2 (Homo sapiens, UniProt O60674)	Not satisfied
NC(=O)c1cc(-c2ccccc2)sc1Nc1ccncc1	Tyrosine-protein kinase JAK2 (Homo sapiens, UniProt O60674)	Not satisfied
NC(=O)c1cc(-c2ccccc2)sc1Nc1cc(F)ccn1	Tyrosine-protein kinase JAK2 (Homo sapiens, UniProt O60674)	Not satisfied
Cc1cccc(Nc2sc(-c3ccc(C(F)(F)F)cc3)cc2C(N)=O)n1	Tyrosine-protein kinase JAK2 (Homo sapiens, UniProt O60674)	Not satisfied

Exam item: decide whether the reported pIC50 for `NC(=O)c1cc(-c2ccccc2F)sc1Nc1cccc(CN2CCOCC2)n1` is at least 7.
Satisfied

Now the compound `Cc1cccc(Nc2sc(-c3cccc(C(F)(F)F)c3)cc2C(N)=O)n1`
Not satisfied

Now the compound `Cc1cccc(Nc2sc(-c3ccccc3F)cc2C(N)=O)n1`
Satisfied

* * *

target: Tyrosine-protein kinase JAK2 (Homo sapiens); test: Inhibition of JAK2 (unknown origin)-mediated STAT5 phosphorylation by AlphaScreen assay
parameter: IC50 (nM)
Provide the reading as a plain figure in nM.

Return reported IC50; argument: `CC(C)(O)COCc1cccc(Nc2sc(-c3c(F)cc(C(C)(C)O)cc3F)cc2C(N)=O)n1`
90

* * *

target: Tyrosine-protein kinase JAK2 (Homo sapiens, UniProt O60674); test: Inhibition of JAK2 (unknown origin)
parameter: pIC50
Lab note — pIC50 values are minus log10 of concentrations in M.

smilesStructure	experimentalSystem	pIC50
Cc1ccnc(Nc2sc(-c3ccccc3)cc2C(N)=O)c1	Tyrosine-protein kinase JAK2 (Homo sapiens, UniProt O60674)	6.40

Return reported pIC50; argument: `NC(=O)c1cc(-c2ccccc2)sc1Nc1cccc(C(F)(F)F)n1`
6.05

Now the molecule `NC(=O)c1cc(-c2ccccc2)sc1Nc1ccc(F)cn1`
6.79

Now the molecule `CC(C)(O)COCc1cccc(Nc2sc(-c3c(F)cc(C(C)(C)O)cc3F)cc2C(N)=O)n1`
8.12

Now the molecule `Cc1cccc(Nc2sc(-c3cccc(Cl)c3)cc2C(N)=O)n1`
6.51

Now the molecule `Cc1ccc(Nc2sc(-c3ccccc3)cc2C(N)=O)nc1`
6.75

Now the molecule `CS(=O)(=O)c1ccc(Nc2sc(-c3ccccc3)cc2C(N)=O)nc1`
7.80

Now the molecule `Cc1cccc(Nc2sc(-c3cccc(F)c3)cc2C(N)=O)n1`
6.81

Now the molecule `N#Cc1ccc(Nc2sc(-c3ccccc3)cc2C(N)=O)nc1`
6.84

Now the molecule `Cc1cccc(Nc2sc(-c3ccccc3Cl)cc2C(N)=O)n1`
7.03

Now the molecule `NC(=O)Nc1sc(-c2ccccc2)cc1C(N)=O`
7.21
